glass transition temperature values by entry
Write the answer as a number in °C, unit excluded.

// below: answered compounds
| compound | measurement.name | test.result |
| --- | --- | --- |
| *OP(=O)(Oc1ccccc1)Oc1c(Br)cc(C(c2cc(Br)c(*)c(Br)c2)(C(F)(F)F)C(F)(F)F)cc1Br (repeat unit) | glass transition temperature | 140.00 |
| *c1cccc(N2C(=O)c3ccc(C(c4ccc5c(c4)C(=O)N(c4cccc(-n6c(=O)c7cc8c(=O)n(*)c(=O)c8cc7c6=O)c4)C5=O)(C(F)(F)F)C(F)(F)F)cc3C2=O)c1 (repeat unit) | glass transition temperature | 338.00 |

Proceed to the following item.
Query :: If you can, please state the reported glass transition temperature value of *c1ccc(Oc2ccc(Oc3ccc(-c4nnc(*)c5c(-c6ccc(F)cc6)c(-c6ccc(F)cc6)c(-c6ccc(F)cc6)c(-c6ccc(F)cc6)c45)cc3)cc2)cc1 (repeat unit) .
Result :: 309.00

----------
glass transition temperature values by entry
Write the answer as a number in °C, unit excluded.

// below: answered compounds
| compound | glass transition temperature / °C |
| --- | --- |
| *OC(=O)OCCCCCCCCCCOC(=O)OC1COC2C(*)COC12 (repeat unit) | 6.50 |
| *c1ccc(C2(c3ccc(-c4cc(-c5ccccc5)c5cc(C6(c7ccc8nc(*)cc(-c9ccccc9)c8c7)c7ccccc7-c7ccccc76)ccc5n4)cc3)c3ccccc3C(=O)c3ccccc32)cc1 (repeat unit) | 385.00 |
| *Nc1ccc(NC(=O)c2ccc(NC(=O)c3cc(NC(=O)C45CC6CC(CC(C6)C4)C5)cc(C(*)=O)c3)cc2)cc1 (repeat unit) | 365.00 |

Proceed to the following item.
Query :: If you can, please state the reported glass transition temperature value of *Oc1c(Cl)cc(C2(c3cc(Cl)c(OC(*)=O)c(Cl)c3)CC3CC2C2CCCC32)cc1Cl (repeat unit) .
Result :: 281.00

----------
glass transition temperature values by entry
Write the answer as a number in °C, unit excluded.

| compound | unit.label | test.result |
| --- | --- | --- |
| *CC(*)c1cccc(O)c1 (repeat unit) | °C | 169.00 |
| *c1ccc(Oc2ccc(C(=O)c3ccc(Oc4ccc(-c5c6c(c(*)c7ccccc57)C(=O)N(c5cccc(C(F)(F)F)c5)C6=O)cc4)cc3)cc2)cc1 (repeat unit) | °C | 252.00 |
| *CC1(*)CCCCC1 (repeat unit) | °C | 100.00 |
| *OC(F)(F)C(F)(F)C(*)(F)F (repeat unit) | °C | -109.00 |

Query :: If you can, please state the reported glass transition temperature value of *C(=O)OCCCCCCCCCCCOC(=O)c1ccc(N2C(=O)c3ccc(*)cc3C2=O)cc1 (repeat unit) .
Result :: 49.00

Query :: If you can, please state the reported glass transition temperature value of *C(F)(F)C1(*)OC(F)(F)C(F)(C(F)(F)F)O1 (repeat unit) .
Result :: 135.00

Query :: If you can, please state the reported glass transition temperature value of *c1cccc(-n2nc(-c3ccccc3)c3cc(Oc4ccc(C(C)(C)c5ccc(Oc6ccc7c(-c8ccccc8)nn(*)c(=O)c7c6)cc5)cc4)ccc3c2=O)c1C#N (repeat unit) .
Result :: 200.00

Query :: If you can, please state the reported glass transition temperature value of *Sc1ccc(Sc2ccc(Sc3ccc(P(=O)(c4ccccc4)c4ccc(*)cc4)cc3)cc2)cc1 (repeat unit) .
Result :: 175.00

Query :: If you can, please state the reported glass transition temperature value of *C(=O)N1C(=O)N(C(=O)c2ccc3c(c2)C(=O)N(c2ccc(Oc4ccc(N5C(=O)c6ccc(*)cc6C5=O)cc4)cc2)C3=O)C(C)(C)C1=O (repeat unit) .
Result :: 156.00

Query :: If you can, please state the reported glass transition temperature value of *Oc1ccc(CC(NC(=O)CCc2ccc(OC(=O)CCC(*)=O)cc2)C(=O)OCCCCCCCCCCCC)cc1 (repeat unit) .
Result :: 40.00

Query :: If you can, please state the reported glass transition temperature value of *Oc1ccc(NC(=O)c2ccc(S(=O)(=O)c3ccc(C(=O)Nc4ccc(Oc5ccc(C(c6ccc(*)cc6)(C(F)(F)F)C(F)(F)F)cc5)cc4)cc3)cc2)cc1 (repeat unit) .
Result :: 250.00

Query :: If you can, please state the reported glass transition temperature value of *CC(*)OC(=O)C(F)(F)C(F)(F)F (repeat unit) .
Result :: 42.00

Query :: If you can, please state the reported glass transition temperature value of *c1ccc(Oc2ccc(-c3csc(/N=C/c4ccc(OCCCCCCCCOc5ccc(/C=N/c6nc(*)cs6)cc5)cc4)n3)cc2)cc1 (repeat unit) .
Result :: 150.00

Query :: If you can, please state the reported glass transition temperature value of *Nc1ccc(Cc2ccc(NC(=O)c3cc(NC(=O)c4ccc(NC(=O)C(CC(C)C)N5C(=O)c6ccccc6C5=O)cc4)cc(C(*)=O)c3)cc2)cc1 (repeat unit) .
Result :: 238.00

Query :: If you can, please state the reported glass transition temperature value of *C(=O)c1ccc2c(c1)C(=O)N(c1cccc(P(=O)(c3ccc(C(F)(F)F)cc3)c3cccc(N4C(=O)c5ccc(*)cc5C4=O)c3)c1)C2=O (repeat unit) .
Result :: 264.00

----------
glass transition temperature values by entry
Write the answer as a number in °C, unit excluded.

// below: answered compounds
| compound | measurement.name | test.result |
| --- | --- | --- |
| *C1=C(c2ccc(-c3ccc4c(c3)C(CCCCCC)(CCCCCC)c3cc(-c5ccc(*)cc5)ccc3-4)cc2)C(=O)N(CCCC)C1=O (repeat unit) | glass transition temperature | 155.00 |
| *C(=O)c1cc(C(=O)c2ccc3c(c2)C(=O)N(c2ccc(C(c4ccc(N5C(=O)c6ccc(*)cc6C5=O)cc4)(C(F)(F)F)C(F)(F)F)cc2)C3=O)cc(-c2ccccc2)c1 (repeat unit) | glass transition temperature | 260.50 |
| *c1ccc(-c2cc(C(C)(C)C)c(Oc3ccc(N4C(=O)c5ccc(-c6ccc7c(c6)C(=O)N(*)C7=O)cc5C4=O)cc3C(F)(F)F)c(C(C)(C)C)c2)cc1 (repeat unit) | glass transition temperature | 389.00 |
| *Nc1ccc(/C=C/c2ccc(NC(=C(C#N)C#N)c3ccc(C(*)=C(C#N)C#N)cc3)cc2)cc1 (repeat unit) | glass transition temperature | 250.00 |
| *CCCCCCCOC(=O)Nc1ccc(Cc2ccc(NC(=O)O*)cc2)cc1 (repeat unit) | glass transition temperature | 84.00 |

Proceed to the following item.
Query :: If you can, please state the reported glass transition temperature value of *Oc1ccc(C(C)(C)c2ccc(Oc3ccc(C(O)C(O)c4ccc(*)cc4)cc3)cc2)cc1 (repeat unit) .
Result :: 151.00

----------
measurement.name: glass transition temperature

// below: answered compounds
| compound | glass transition temperature |
| --- | --- |
| *c1ccc(Oc2ccc(C(C)(C)c3cccc(C(C)(C)c4ccc(Oc5ccc(-n6c(=O)c7cc8c(=O)n(*)c(=O)c8cc7c6=O)cc5)cc4)c3)cc2)cc1 (repeat unit) | 249.47 °C |
| *c1cccc(Cc2cccc(N3C(=O)c4ccc([Si](C)(C)O[Si](C)(C)c5ccc6c(c5)C(=O)N(*)C6=O)cc4C3=O)c2)c1 (repeat unit) | 217.00 °C |
| *Oc1ccc(Oc2ccc(C(=O)c3ccccc3)c(-c3cc(*)ccc3C(=O)c3ccccc3)c2)cc1 (repeat unit) | 156.00 °C |
| *C/C=C/C[Si](*)(C)CCCOc1ccc(-c2ccccc2)cc1 (repeat unit) | 10.00 °C |
| *c1ccc(Oc2cccc(NC(=O)c3cc(NC(=O)c4ccc(OC(C)=O)cc4)cc(C(=O)Nc4cccc(Oc5ccc(-c6nnc(*)o6)cc5)c4)c3)c2)cc1 (repeat unit) | 270.00 °C |

Query :: If you can, please state the reported glass transition temperature value of *c1ccc(Sc2ccc(-c3nc4ccc(-c5ccc6nc(*)c(-c7ccccc7)nc6c5)cc4nc3-c3ccccc3)cc2)cc1 (repeat unit) .
Result :: 288.00 °C

Query :: If you can, please state the reported glass transition temperature value of *c1ccc(-c2ccc(-n3c(-c4ccc(Oc5ccc(S(=O)(=O)c6ccc(Oc7ccc(-c8nc9ccccc9n8*)cc7)cc6)cc5)cc4)nc4ccccc43)cc2)cc1 (repeat unit) .
Result :: 289.00 °C

----------
measurement.name: glass transition temperature (°C)
Write the answer as a number in °C, unit excluded.

// below: answered molecules
| molecule | glass transition temperature (°C) |
| --- | --- |
| *c1ccc2c(c1)C(=O)N(c1ccc(Oc3ccc(C(c4ccc(Oc5ccc(N6C(=O)c7ccc(C(*)(C(F)(F)F)C(F)(F)F)cc7C6=O)cc5)cc4)(C(F)(F)F)C(F)(F)F)cc3)cc1)C2=O (repeat unit) | 247.00 |
| *C(=O)c1ccc2nc(-c3ccc(-c4nc5ccc(*)cc5nc4-c4ccccc4)cc3)c(-c3ccccc3)nc2c1 (repeat unit) | 325.00 |

Proceed to the following item.
Query :: If you can, please state the reported glass transition temperature value of *C(=O)Nc1cccc(NC(=O)c2ccc3[nH]c(-c4cccc(-c5nc6cc(*)ccc6[nH]5)c4)nc3c2)n1 (repeat unit) .
Result :: 302.00
